Test: In vitro anticoagulant activity determined by clotting test of activated partial thromboplastin time (APTT) on a pool of human plasma
Type: functional
quantity.kind: APTT (IU mg-1)
Hi! Could you send only the number? It should be in IU mg-1, unit omitted.

compound	unit.text	experimental.value
CCCCOC(=O)/C=C(\CO)OC1OC(COS(=O)(=O)[O-])C(OC2OC(C(=O)OCCCC)C(OC3OC(COS(=O)(=O)[O-])C(OC4OC(C(=O)OCCCC)C(OC5OC(COS(=O)(=O)[O-])C(O)C(O)C5NC(C)=O)C(O)C4OS(=O)(=O)[O-])C(O)C3NC(C)=O)C(O)C2OS(=O)(=O)[O-])C(O)C1NC(C)=O.[Na+].[Na+].[Na+].[Na+].[Na+] (centres undefined)	IU mg-1	1.2
O=C([O-])/C=C(\COC(=O)c1ccccc1)OC1OC(COS(=O)(=O)[O-])C(OC2OC(C(=O)[O-])C(OC3OC(COS(=O)(=O)[O-])C(OC4OC(C(=O)[O-])C(OC5OC(COS(=O)(=O)[O-])C(O)C(OC(=O)c6ccccc6)C5NS(=O)(=O)[O-])C(OC(=O)c5ccccc5)C4OS(=O)(=O)[O-])C(OC(=O)c4ccccc4)C3NS(=O)(=O)[O-])C(OC(=O)c3ccccc3)C2OS(=O)(=O)[O-])C(OC(=O)c2ccccc2)C1NS(=O)(=O)[O-].[Na+].[Na+].[Na+].[Na+].[Na+].[Na+].[Na+].[Na+].[Na+].[Na+].[Na+] (centres undefined)	IU mg-1	8
CC(=O)OC/C(=C\C(=O)[O-])OC1OC(COS(=O)(=O)[O-])C(OC2OC(C(=O)[O-])C(OC3OC(COS(=O)(=O)[O-])C(OC4OC(C(=O)[O-])C(OC5OC(CS(=O)(=O)[O-])C(O)C(OC(C)=O)C5NS(=O)(=O)[O-])C(OC(C)=O)C4OS(=O)(=O)[O-])C(OC(C)=O)C3NS(=O)(=O)[O-])C(OC(C)=O)C2OS(=O)(=O)[O-])C(OC(C)=O)C1NS(=O)(=O)[O-].[Na+].[Na+].[Na+].[Na+].[Na+].[Na+].[Na+].[Na+].[Na+].[Na+].[Na+] (centres undefined)	IU mg-1	10

Turning to the following compound.
Sure, the documented APTT for CCCC(=O)OCC1OC(OC2C(C(=O)[O-])OC(OC3C(NC(C)=O)C(OC4C(C(=O)[O-])OC(C)C(OC(=O)CCC)C4O)OC(COC(=O)CCC)C3OS(=O)(=O)[O-])C(OC(=O)CCC)C2OC(=O)CCC)C(NC(C)=O)C(OC)C1OS(=O)(=O)[O-].[Na+].[Na+].[Na+].[Na+] (centres undefined) is 3.7

----------
Assay: In vitro anticoagulant activity determined by clotting test of activated partial thromboplastin time (APTT) on a pool of human plasma
Type: functional
quantity.kind: APTT (IU mg-1)
Hi! Could you send only the number? It should be in IU mg-1, unit omitted.

Sure, the documented APTT for CCCCCC(=O)OC/C(=C\C(=O)[O-])OC1OC(COS(=O)(=O)[O-])C(OC2OC(C(=O)[O-])C(OC3OC(COS(=O)(=O)[O-])C(OC4OC(C(=O)[O-])C(OC5OC(CS(=O)(=O)[O-])C(O)C(OC(=O)CCCCC)C5NS(=O)(=O)[O-])C(OC(=O)CCCCC)C4OS(=O)(=O)[O-])C(OC(=O)CCCCC)C3NS(=O)(=O)[O-])C(OC(=O)CCCCC)C2OS(=O)(=O)[O-])C(OC(=O)CCCCC)C1NS(=O)(=O)[O-].[Na+].[Na+].[Na+].[Na+].[Na+].[Na+].[Na+].[Na+].[Na+].[Na+].[Na+] (stereo in doubt; 3h) is 6

----------
Tested on: MT4
Assay: Selectivity index for CC50 (cytotoxic concentration based on reduction of viability of mock-infected MT-4 cells) to that of EC50 against HIV-2
Type: functional
Quick reference: Selectivity index of the listed items.

compound	study.target	Selectivity index
COc1ccc(COC(=O)/C=C(\CO)OC2OC(COS(=O)(=O)[O-])C(OC3OC(C(=O)OCc4ccc(OC)cc4)C(OC4OC(COS(=O)(=O)[O-])C(OC5OC(C(=O)OCc6ccc(OC)cc6)C(OC6OC(COS(=O)(=O)[O-])C(O)C(O)C6NS(=O)(=O)[O-])C(O)C5OS(=O)(=O)[O-])C(O)C4NS(=O)(=O)[O-])C(O)C3OS(=O)(=O)[O-])C(O)C2NS(=O)(=O)[O-])cc1.[Na+].[Na+].[Na+].[Na+].[Na+].[Na+].[Na+].[Na+] (configuration not stated)	MT4	>119

Turning to the following compound.
Sure, the documented Selectivity index for CCCCCC(=O)OC/C(=C\C(=O)[O-])OC1OC(COS(=O)(=O)[O-])C(OC2OC(C(=O)[O-])C(OC3OC(COS(=O)(=O)[O-])C(OC4OC(C(=O)[O-])C(OC5OC(CS(=O)(=O)[O-])C(O)C(OC(=O)CCCCC)C5NS(=O)(=O)[O-])C(OC(=O)CCCCC)C4OS(=O)(=O)[O-])C(OC(=O)CCCCC)C3NS(=O)(=O)[O-])C(OC(=O)CCCCC)C2OS(=O)(=O)[O-])C(OC(=O)CCCCC)C1NS(=O)(=O)[O-].[Na+].[Na+].[Na+].[Na+].[Na+].[Na+].[Na+].[Na+].[Na+].[Na+].[Na+] (stereo in doubt; 3f) is >500

----------
System: MT4
Test: Effective concentration to achieve 50% protection of MT-4 cells against the cytopathic effect of HIV-2
Format: functional, cell-based
Settings: Homo sapiens, MT4; read-out: EC50
Quick reference: EC50 of the listed items.
Hi! Could you send only the number? It should be in µg/mL, unit omitted.

// solved cases for EC50 follow
compound	EC50 (µg/mL)
C/C=C\COC(=O)/C=C(\CO)OC1OC(COS(=O)(=O)[O-])C(OC2OC(C(=O)OC/C=C/C)C(OC3OC(COS(=O)(=O)[O-])C(OC4OC(C(=O)OC/C=C/C)C(OC5OC(COS(=O)(=O)[O-])C(O)C(O)C5NS(=O)(=O)[O-])C(O)C4OS(=O)(=O)[O-])C(O)C3NS(=O)(=O)[O-])C(O)C2OS(=O)(=O)[O-])C(O)C1NS(=O)(=O)[O-].[Na+].[Na+].[Na+].[Na+].[Na+].[Na+].[Na+].[Na+] (centres undefined)	1.3
COC1C(NC(C)=O)C(OC2C(C(=O)[O-])OC(OC3C(NC(C)=O)C(OC4C(C(=O)[O-])OC(C)C(OC(=O)CCC(=O)[O-])C4O)OC(COC(=O)CCC(=O)[O-])C3OS(=O)(=O)[O-])C(OC(=O)CCC(=O)[O-])C2OC(=O)CCC(=O)[O-])OC(COC(=O)CCC(=O)[O-])C1OS(=O)(=O)[O-].[Na+].[Na+].[Na+].[Na+].[Na+].[Na+].[Na+].[Na+].[Na+] (centres undefined)	50.4

Turning to the following compound.
Sure, the documented EC50 for COc1ccc(COC(=O)/C=C(\CO)OC2OC(COS(=O)(=O)[O-])C(OC3OC(C(=O)OCc4ccc(OC)cc4)C(OC4OC(COS(=O)(=O)[O-])C(OC5OC(C(=O)OCc6ccc(OC)cc6)C(OC6OC(COS(=O)(=O)[O-])C(O)C(O)C6NS(=O)(=O)[O-])C(O)C5OS(=O)(=O)[O-])C(O)C4NS(=O)(=O)[O-])C(O)C3OS(=O)(=O)[O-])C(O)C2NS(=O)(=O)[O-])cc1.[Na+].[Na+].[Na+].[Na+].[Na+].[Na+].[Na+].[Na+] (centres undefined) is 4.3

----------
Tested on: MT4
Test: Effective concentration to achieve 50% protection of MT-4 cells against the cytopathic effect of HIV-2
Format: functional, cell-based
Settings: Homo sapiens, MT4; read-out: EC50
Quick reference: EC50 of the listed items.
Hi! Could you send only the number? It should be in µg/mL, unit omitted.

// solved cases for EC50 follow
molecule	EC50, µg/mL
CCCCOC(=O)/C=C(\CO)OC1OC(COS(=O)(=O)[O-])C(OC2OC(C(=O)OCCCC)C(OC3OC(COS(=O)(=O)[O-])C(OC4OC(C(=O)OCCCC)C(OC5OC(COS(=O)(=O)[O-])C(O)C(O)C5NC(C)=O)C(O)C4OS(=O)(=O)[O-])C(O)C3NC(C)=O)C(O)C2OS(=O)(=O)[O-])C(O)C1NC(C)=O.[Na+].[Na+].[Na+].[Na+].[Na+] (stereo not drawn)	2.5
CCCCOC(=O)/C=C(\COC(=O)CCC)OC1OC(COS(=O)(=O)[O-])C(OC2OC(C(=O)OCCCC)C(OC3OC(COS(=O)(=O)[O-])C(OC4OC(C(=O)OCCCC)C(OC5OC(COS(=O)(=O)[O-])C(O)C(OC(=O)CCC)C5NC(C)=O)C(OC(=O)CCC)C4OS(=O)(=O)[O-])C(OC(=O)CCC)C3NC(C)=O)C(OC(=O)CCC)C2OS(=O)(=O)[O-])C(OC(=O)CCC)C1NC(C)=O.[Na+].[Na+].[Na+].[Na+].[Na+] (stereo not drawn)	2.6

Turning to the following molecule.
Sure, the documented EC50 for C=CCCOC(=O)/C=C(\CO)OC1OC(COS(=O)(=O)[O-])C(OC2OC(C(=O)OCCC=C)C(OC3OC(COS(=O)(=O)[O-])C(OC4OC(C(=O)OCCC=C)C(OC5OC(COS(=O)(=O)[O-])C(O)C(O)C5NS(=O)(=O)[O-])C(O)C4OS(=O)(=O)[O-])C(O)C3NS(=O)(=O)[O-])C(O)C2OS(=O)(=O)[O-])C(O)C1NS(=O)(=O)[O-].[Na+].[Na+].[Na+].[Na+].[Na+].[Na+].[Na+].[Na+] (stereo not drawn) is 2.4
